Conditions: 323.15 K; 100 kPa
Catalogue of viscosity readings, one per entry.
Field format: number, assumed mPa·s, no unit text.

INSERT INTO assay_data (structure_as_smiles, recorded_value) VALUES
  ('CC(C)CO', 1.637);

QUERY: Determine its reported viscosity: "O=C1OCCO1"
RESULT: 1.56

QUERY: Determine its reported viscosity: "CCCCCCCC[P+](CC)(CC)CC.O=[N+]([O-])c1cnc[n-]1"
RESULT: 78

QUERY: Determine its reported viscosity: "CCCCCCCCCCCCCC(=O)OC"
RESULT: 2.301

---

Experiment: xn = mol fraction of the nth substance listed
Settings: 303.15 K; 100 kPa; x1 = 0.2999
± gives the uncertainty stated by the source.
Endpoint Label: viscosity

Please review the entries below; each comes with its answer.
INSERT INTO measurements (compound, endpoint_label, recorded_value) VALUES
  ('C1CCC2=[NH+]CCCN2CC1.c1nc[n-]n1 + CCO', 'viscosity', '22.01 ± 0.49 mPa·s'),
  ('C1CCC2=[NH+]CCCN2CC1.c1nc[n-]n1 + CO', 'viscosity', '24.53 ± 0.56 mPa·s'),
  ('C1CCC2=[NH+]CCCN2CC1.c1nc[n-]n1 + CCCCO', 'viscosity', '22.82 ± 0.52 mPa·s'),
  ('C1CCC2=[NH+]CCCN2CC1.c1nc[n-]n1 + CN(C)C=O', 'viscosity', '6.28 ± 0.14 mPa·s');

QUERY: Determine its reported viscosity: C1CCC2=[NH+]CCCN2CC1.c1nc[n-]n1 + CC(C)O
RESULT: 23.38 ± 0.53 mPa·s

QUERY: Determine its reported viscosity: C1CCC2=[NH+]CCCN2CC1.c1nc[n-]n1 + CS(C)=O
RESULT: 12.29 ± 0.28 mPa·s

Just for reference, the CheMixHub viscosity set is where these values come from.
